test: Pharmacokinetic study in serum and brain; type: in vivo, mice; conditions: male, CD-1, mouse, ip; serum, i.p. 50 mg/kg, mice

compound	unitAbbreviation	MRT
CC(=O)NC(C)C(=O)N1CCN(c2cccc(OC(F)(F)F)c2)CC1 (stereo not shown)	min	24.4

---

biological target: TRPV1 (VR1) (h) (Homo sapiens); construct: Eurofins (contract assay); assay: TRPV1 antagonist effect functional assay; format: cell-based; details: 10 μM, human recombinant CHO cells; read-out: % inhibition of control agonist response
Sequence (Q8NER1 whole entry): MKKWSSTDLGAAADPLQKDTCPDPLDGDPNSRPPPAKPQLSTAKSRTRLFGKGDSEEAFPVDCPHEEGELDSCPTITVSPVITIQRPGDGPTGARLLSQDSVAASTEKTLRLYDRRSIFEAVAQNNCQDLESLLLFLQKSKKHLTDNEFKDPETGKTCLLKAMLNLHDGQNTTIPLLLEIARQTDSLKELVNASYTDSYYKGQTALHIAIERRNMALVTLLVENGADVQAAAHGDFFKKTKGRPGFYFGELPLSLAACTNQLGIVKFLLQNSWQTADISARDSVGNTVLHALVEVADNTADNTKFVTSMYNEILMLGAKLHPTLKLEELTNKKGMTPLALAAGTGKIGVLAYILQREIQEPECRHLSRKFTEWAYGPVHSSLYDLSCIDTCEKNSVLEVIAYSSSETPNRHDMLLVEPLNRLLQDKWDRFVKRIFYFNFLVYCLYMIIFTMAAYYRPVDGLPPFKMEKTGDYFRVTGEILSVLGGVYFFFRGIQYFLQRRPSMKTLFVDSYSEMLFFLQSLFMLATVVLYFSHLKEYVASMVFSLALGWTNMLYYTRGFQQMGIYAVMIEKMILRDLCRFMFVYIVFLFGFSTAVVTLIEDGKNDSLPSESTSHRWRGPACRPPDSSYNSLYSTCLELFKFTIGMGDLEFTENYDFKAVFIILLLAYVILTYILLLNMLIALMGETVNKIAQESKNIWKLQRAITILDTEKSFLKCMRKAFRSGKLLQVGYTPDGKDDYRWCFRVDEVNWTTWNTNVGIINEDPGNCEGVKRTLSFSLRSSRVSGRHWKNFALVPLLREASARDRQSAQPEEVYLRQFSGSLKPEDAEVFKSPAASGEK
Measured inhibition at 10 µM accompanies every entry in the list below.

molecule	inhibition at 10 µM / %
CC(NC(=O)c1ccccc1)C(=O)N1CCN(c2cccc(Cl)c2)CC1 (centres unmarked)	4.6
CC(=O)NC(C)C(=O)N1CCN(c2cc(Cl)cc(Cl)c2)CC1 (centres unmarked)	8.1
CC(=O)NC(C)C(=O)N1CCN(c2ccc(Cl)c(Cl)c2)CC1 (centres unmarked)	51.5
CC(=O)NC(C)C(=O)NC1CCN(c2cccc(SC(F)(F)F)c2)C1 (centres unmarked)	4.2
CC(=O)NC(C)C(=O)N1CCN(c2cccc(Cl)c2)CC1 (centres unmarked)	12.5
CC(=O)NC(C)C(=O)NC1CCN(c2ccccc2)C1 (centres unmarked)	-11.6
CC(=O)NC(C)C(=O)N1CCN(c2ccc(C(F)(F)F)cc2)CC1 (centres unmarked)	-15.9
CC(=O)NC(C)C(=O)N1CCN(c2cccc(C(F)(F)F)c2)CC1 (centres unmarked)	-4.9
CC(=O)NC(C)C(=O)NC1CCN(c2cccc(C(F)(F)F)c2)C1 (centres unmarked)	-10
CC(NC(=O)c1ccccc1)C(=O)N1CCN(c2cccc(C(F)(F)F)c2)CC1 (centres unmarked)	-16.1
CCNC(=O)NC(C)C(=O)N1CCN(c2cccc(Cl)c2)CC1 (centres unmarked)	-11.7
CC(C)NC(=O)NC(C)C(=O)N1CCN(c2cccc(Cl)c2)CC1 (centres unmarked)	-11.9
CC(=O)NC(C)C(=O)N1CCN(c2cccc(SC(F)(F)F)c2)CC1 (centres unmarked)	12
CC(=O)NC(C)C(=O)N1CCN(c2ccc(Cl)cc2)CC1 (centres unmarked)	-4.6
CC(C)NC(=O)NC(C)C(=O)N1CCN(c2cccc(C(F)(F)F)c2)CC1 (centres unmarked)	-13.6
CC(=O)NC(C)C(=O)N1CCN(c2cccc(OC(F)(F)F)c2)CC1 (centres unmarked)	6.5
CC(=O)NC(C)C(=O)N1CCN(c2ccccc2)CC1 (centres unmarked)	1.6
CC(=O)NC(C)C(=O)N1CCN(c2cccc(Oc3ccccc3)c2)CC1 (centres unmarked)	104
CCNC(=O)NC(C)C(=O)N1CCN(c2cccc(C(F)(F)F)c2)CC1 (centres unmarked)	-5.3
CC(=O)NC(C)C(=O)NC1CCN(c2cccc(OC(F)(F)F)c2)C1 (centres unmarked)	-8.3
